# Tested on: Trypanosoma cruzi
# assay.comment: Trypanosoma cruzi phosphomannomutase and mannose-1-phosphate guanylyltransferase assay
# Format: functional
# Design: scale not given: direction of the effect not stated beside the values
# measurement.setup: 10 µM
metric: Percent Effect (%)
Give bare numbers, in %.

Reference set, count: 5
molecule	assayed.system	recorded.number
Cn1ccc(CN2CCC(NC(=O)Cc3ccccc3)CC2)cc1=O	Trypanosoma cruzi	6.85
O=C(CCc1cnn(-c2ccccc2)c1)N1CCCC(n2cccn2)C1 (configuration not stated)	Trypanosoma cruzi	3.38
CCOCC1CN(C(=O)N(C)C)Cc2nn(C)cc21 (configuration not stated)	Trypanosoma cruzi	-0.579
CN(C)Cc1cc(=O)n2c(n1)CN(C(=O)Cc1ccsc1)CCC2	Trypanosoma cruzi	0.492
Cc1nccn1-c1cc(CNC(=O)c2ccccn2)ccn1	Trypanosoma cruzi	3.33

Required: Percent Effect, one value per molecule below.
1. CN(C)C(=O)N1CCc2c(CNc3ncccn3)cncc2C1
2. Cn1cnnc1C1CCCN(C(=O)NCCOc2ccccc2)C1 (configuration not stated)
3. CCOC(=O)CNC(=O)c1cccnc1Oc1ccc(Cl)cc1
4. Cn1cccc1C(=O)N1CCCC2(CCN(CCN3CCCC3)C2=O)C1 (configuration not stated)

(A)
1.35
4.8
0.375
-1.48

Required: Percent Effect, one value per molecule below.
1. Cc1nc(C)c(CNC(=O)NC(c2nnc3n2CCC3)C(C)C)s1 (configuration not stated)
2. CC1COCCN1C(=O)c1cccc(OCc2cscn2)c1 (configuration not stated)
3. Cc1cc(-c2nn(C)c(Cl)c2CN2CCOCC(O)C2)no1 (configuration not stated)

(A)
1: -4.1; 2: 7.98; 3: 4.37

---

Exercise: for every item that follows, state its recorded Percent Effect.
# Species on record: Homo sapiens
# assay.comment: To identify inhibition of the IFN signalling (Jak-Stat) pathway via expression of an eGFP reporter gene under the control of an IFN-stimulated response element (ISRE) containing MxA promoter.
# Format: functional
# Set-up: scale not given: direction of the effect not stated beside the values
# measurement.setup: 30 µM
One number for each entry, in %.

Reference set, count: 5
molecule	Percent Effect / %
Cc1ccc(C(=O)N2CCN(S(C)(=O)=O)CC2)cc1N1CCNC1=O	16.6
COCCN1CCN(C(=O)C2CC=CC2)Cc2cccnc21	-18.4
CSc1ccc(-c2nc(CN3CCC(NC(C)=O)C3)c(C)o2)cc1 (stereo unspecified)	18.4
Cc1noc(C)c1CN1CCN(Cc2nccn2C)C(C)C1 (stereo unspecified)	18.5
CC(=O)c1ccccc1C(=O)NCC1(CO)CC1	21.2

Consider the additional molecule presented here.
(Q) Return reported Percent Effect. Input molecule: Cc1nn(C)c(C)c1C1CCCN1C(=O)CCc1cscn1 (stereo unspecified)
(A) -8.57

---

# assayed.system: AMP-activated protein kinase, AMPK (Homo sapiens) (UniProt P54646+O43741+P54619+Q9UGJ0+Q9Y478+Q13131+Q9UGI9)
# assay.comment: AMP-dependent Kinase enzyme assay. An in vitro enzyme assay that detects ADP turnover that is directly proportional to AMPK activity. This uses naive AMPK that is activated during the assay with MK-8722
# Type: functional
# Parameters: scale not given: direction of the effect not stated beside the values
# measurement.setup: 30 µM
metric: Percent Effect (%)
One number for each entry, in %.

Reference set, count: 2
molecule	metric	recorded.number
COCCC(=O)N1CC2(CCN(Cc3cccc(Cl)c3)CC2)C1	Percent Effect	5.28
CCc1nc(C)c(C(=O)N2C[C@H]3CC[C@@H]2CN(S(=O)(=O)N(C)C)C3)s1	Percent Effect	-0.605

Required: Percent Effect, one value per molecule below.
1. CC(C)Cc1cc(C(=O)NCc2nnc[nH]2)[nH]n1
2. c1cnn(CC2CN(Cc3nc(-c4ccsc4)no3)CCO2)c1 (stereo unspecified)
3. Cn1cccc1C1CCCN1C(=O)NCCCn1cccn1 (stereo unspecified)
4. COCC(=O)N1CCN(Cc2coc(-c3cccc(F)c3)n2)CC1

(A)
[11.2, -2.23, -3.95, 2.98]
